Entries and their measured LAL EU/mg of product follow.
# Test system: Limulus Amoebocyte Lysate

Answered examples (2):
CCCCCCCCCCCC(=O)O[C@H](CCCCCCCCCCC)CC(=O)N[C@H](CC(=O)O)C(=O)NCCC[C@H](COC(=O)CCCCCNC(=O)CCC(=O)O)NC(=O)C[C@H](O)CCCCCCCCCCC ... <0.05 EU/mg of product
CCCCCCCCCCCC(=O)O[C@H](CCCCCCCCCCC)CC(=O)N[C@H](CC(=O)NCCCN)C(=O)NCCC[C@H](CO)NC(=O)C[C@H](O)CCCCCCCCCCC ... <0.5 EU/mg of product

Kindly consider the entry below.
Entry CCCCCCCCCCCC(=O)O[C@H](CCCCCCCCCCC)CC(=O)NC(CCOP(=O)(O)O)C(=O)NCCCC(COC(=O)CCCCC(O)CO)NC(=O)C[C@H](O)CCCCCCCCCCC (stereo partly drawn) ; assay system Limulus Amoebocyte Lysate; LAL EU/mg of product recorded at 540 EU/mg of product

* * *

# Test system: bone marrow stem cells
# EXPERIMENTAL DETAILS: bone marrow stem cell proliferation (XTT)
# Format: cell-based, C57/BL6 mice
# EXPERIMENTAL SETUP: concentration at maximum amplitude
Entries and their measured Max concentration follow.

Answered examples (2):
CCCCCCCCCCCC(=O)O[C@H](CCCCCCCCCCC)CC(=O)N[C@H](CC(=O)O)C(=O)NCCC[C@H](COC(=O)CCCCCO)NC(=O)C[C@H](O)CCCCCCCCCCC ... > 100 µg/mL
CCCCCCCCCCCC(=O)O[C@H](CCCCCCCCCCC)CC(=O)NC(CCOP(=O)(O)O)C(=O)NCCCC(COC(=O)CCCCCO)NC(=O)C[C@H](O)CCCCCCCCCCC (stereo partly drawn) ... 25 µg/mL

Kindly consider the entry below.
molecule `CCCCCCCCCCCC(=O)O[C@H](CCCCCCCCCCC)CC(=O)N[C@H](CC(=O)N[C@@H](CCCCN)C(=O)O)C(=O)NCCC[C@H](COC(=O)CCCCCN)NC(=O)C[C@H](O)CCCCCCCCCCC` , Max concentration observed: > 50 µg/mL

* * *

Entries and their measured Dextran % CD follow.
# System: predendritic cells (DC-6)
# EXPERIMENTAL DETAILS: dendritic cell differentiation test: FITC-Dextran take-up
# Format: cell-based, human
# EXPERIMENTAL SETUP: 10 μg/ml, products redissolved in pyrogen-free water; % of dendritic cells
Express the result in % but write the number alone.

Answered examples (2):
CCCCCCCCCCCC(=O)O[C@H](CCCCCCCCCCC)CC(=O)NC(CCOP(=O)(O)O)C(=O)NCCCC(COC(=O)CCCCC(O)CO)NC(=O)C[C@H](O)CCCCCCCCCCC (stereo partly shown) [OM-197-FV6] ... 84.5
CCCCCCCCCCCC(=O)O[C@H](CCCCCCCCCCC)CC(=O)N[C@H](CC(=O)O)C(=O)NCCC[C@H](COC(=O)CCCCCNC(=O)CCC(=O)OC[C@@H]1C=C[C@H](n2cc(C)c(=O)[nH]c2=O)O1)NC(=O)C[C@H](O)CCCCCCCCCCC [OM-197-MC-AC-Succ-d4T] ... 11.6

compound CCCCCCCCCCCC(=O)O[C@H](CCCCCCCCCCC)CC(=O)N[C@H](CC(=O)N[C@@H](CCCCN)C(=O)O)C(=O)NCCC[C@H](CO)NC(=O)C[C@H](O)CCCCCCCCCCC [OM-197-Lys] , Dextran % CD observed: 12.1

compound CCCCCCCCCCCC(=O)O[C@H](CCCCCCCCCCC)CC(=O)N[C@H](CC(=O)N[C@@H](CC(=O)O)C(=O)O)C(=O)NCCC[C@H](CO)NC(=O)C[C@H](O)CCCCCCCCCCC [OM-197-Asp] , Dextran % CD observed: 26.4

compound CCCCCCCCCCCC(=O)O[C@H](CCCCCCCCCCC)CC(=O)NC(CCOP(=O)(O)O)C(=O)NCCC[C@H](COC(=O)CCCCCN)NC(=O)C[C@H](O)CCCCCCCCCCC (mixture of isomers) [OM-197-MP-AC (R/S, R)] , Dextran % CD observed: 84.6

compound CCCCCCCCCCCC(=O)O[C@H](CCCCCCCCCCC)CC(=O)N[C@H](CC(=O)O)C(=O)NCCC[C@H](COC(=O)CCCCCNC(=O)CCC(=O)OC[C@H]1O[C@@H](n2cc(C)c(=O)[nH]c2=O)C[C@@H]1N=[N+]=[N-])NC(=O)C[C@H](O)CCCCCCCCCCC [OM-197-MC-AC-Succ-AZT] , Dextran % CD observed: 62.2

compound CCCCCCCCCCCC(=O)O[C@H](CCCCCCCCCCC)CC(=O)N[C@H](CC(=O)O)C(=O)NCCC[C@H](COC(=O)CCCCC(O)CO)NC(=O)C[C@H](O)CCCCCCCCCCC (stereo partly shown) [OM-197-MC-FV5] , Dextran % CD observed: 86.5

Values from patent US8173133B2
